tested on: H1 human embryonic stem cells; assay: Secondary assay: panel of compounds with growth factor combinations and muscimol, no activin A (Example 6, Table 5); type: cell-based; settings: no AA (with Wnt3a); EGF + FGF4 + PDGF-A + VEGF
Use Satisfied when the recorded Cell Number, Average Total Cell Number is no lower than 9000; use Not satisfied when it is lower.

For orientation, consider the following solved cases.
compound: O=C1CCN2CCN(CC2)Cc2cc(Cl)cc(c2)Nc2ncnc(n2)-c2cncc(c2)CCCN1
category: Satisfied
--
compound: CCN1CC(=O)NCCCc2cncc(c2)-c2ncnc(n2)Nc2cc(Cl)cc(c2)C1
category: Satisfied
--
compound: CN1CCC(=O)NCCCNc2ncccc2-c2ncnc(n2)Nc2cccc(c2)C1
category: Not satisfied
--
compound: O=C1NCCCc2cncc(c2)-c2ncnc(n2)Nc2cccc(c2)CN2CCCC1C2 (stereo not shown)
category: Satisfied

Record O=C1NCCCc2cncc(c2)-c2ncnc(n2)Nc2cccc(c2)CN2CCC1CC2 ; criterion: Cell Number, Average Total Cell Number no lower than 9000. Met?
Satisfied

* * *

test system: CDK, GSK3, and/or TRK signaling pathways; experiment: Primary selectivity of the proprietary small molecules (Table 16); conditions: as listed in Table 17
readout type: Compound Selectivity

Worked cases, Compound Selectivity given:
smiles: O=C1COc2cccc(c2)Nc2nccc(n2)Nc2cccc(c2)OCCCN1
readout type: Compound Selectivity
recorded result: Selective for CDK

smiles: N#Cc1cnc2nc1Nc1cccc(c1)OCCNC(=O)c1cccc(c1)N2
readout type: Compound Selectivity
recorded result: Selective for GSK

smiles: CN(C)CCNC(=O)c1ccc(-c2cnc3ccc(NCc4cccc(Cl)c4)nn23)cc1
readout type: Compound Selectivity
recorded result: Selective for Trk

smiles: CN1CCC(NC(=O)c2ccc(Nc3nccc(N4CCN(C)c5ccccc54)n3)cc2)CC1
readout type: Compound Selectivity
recorded result: Selective for CDK

smiles: O=C(O)c1ccc(Nc2ncc3nnn(-c4cccc(F)c4)c3n2)cc1
readout type: Compound Selectivity
recorded result: Selective for GSK

smiles: COCCCNS(=O)(=O)c1ccc(Nc2ncc3cnn(C4CCCCC4)c3n2)cc1
readout type: Compound Selectivity
recorded result: Selective for CDK

smiles: COc1ccc2cc1OCCCC(=O)N(C)CC1CN(Cc3c[nH]c4ncnc(c34)N2)C1
readout type: Compound Selectivity
recorded result: Selective for Trk

smiles: Nc1nccc(-c2cccc(Nc3ncc4nnn(-c5cccc(CNC(=O)C6CC6)c5)c4n3)c2)n1
readout type: Compound Selectivity
recorded result: Selective for GSK

smiles: CN1CCCc2cccc(c2)-c2nnc([nH]2)Nc2cccc(c2)CN2CCN(CC2)C(=O)C1
readout type: Compound Selectivity
recorded result: Selective for Trk

smiles: O=C1NCc2cccc(c2)-c2ccnc(n2)Nc2ccc(C(=O)N3CCOCC3)c(c2)CN2CCC[C@@H]12
readout type: Compound Selectivity
recorded result: Selective for GSK

As a next step, examine the compound that follows.
Item under review: COc1ccc(Nc2cc(Nc3cc(Cl)ccc3O)ncn2)cc1CCl . Reported Compound Selectivity?
Selective for CDK

* * *

tested on: H1 human embryonic stem cells; experiment: Compounds and growth factors with low dose activin A (Example 9, Table 9); assay type: cell-based; details: 10 ng/ml AA + compound + EGF + FGF4 + Wnt3a
readout type: Sox17 Expression, % of positive control

Reference set (5 entries):
molecule: CCN1CCCc2cccc(c2)-c2ncnc(n2)Nc2cccc(c2)CCNC(=O)C1 [Compound 29]
target or test system: H1 human embryonic stem cells
recorded result: 1.73 % of positive control
--
molecule: O=C1NCCCc2cncc(c2)-c2ncnc(n2)Nc2cc(Cl)cc(c2)CN2CCCC1C2 (stereo not drawn) [Compound 37]
target or test system: H1 human embryonic stem cells
recorded result: 0.50 % of positive control
--
molecule: O=C1NCCCc2cncc(c2)-c2ncnc(n2)Nc2cccc(c2)CN2CCC1CC2 [Compound 22]
target or test system: H1 human embryonic stem cells
recorded result: 40.13 % of positive control
--
molecule: CCN1CC(=O)NCCCc2cncc(c2)-c2ncnc(n2)Nc2cc(Cl)cc(c2)C1 [Compound 35]
target or test system: H1 human embryonic stem cells
recorded result: −3.65 % of positive control
--
molecule: O=C1CCN2CCN(CC2)Cc2cc(Cl)cc(c2)Nc2ncnc(n2)-c2cncc(c2)CCCN1 [Compound 34]
target or test system: H1 human embryonic stem cells
recorded result: 215.35 % of positive control

Shift focus to the following entry.
Endpoint output: Sox17 Expression, % of positive control of CN1CCC(=O)NCCCNc2ncccc2-c2ncnc(n2)Nc2cccc(c2)C1 [Compound 39] . Value?
−3.53 % of positive control

All values here come from patent US9593305B2.
